# test target: human Pgp (Homo sapiens, UniProt P08183)
# Sequence (P08183 whole entry): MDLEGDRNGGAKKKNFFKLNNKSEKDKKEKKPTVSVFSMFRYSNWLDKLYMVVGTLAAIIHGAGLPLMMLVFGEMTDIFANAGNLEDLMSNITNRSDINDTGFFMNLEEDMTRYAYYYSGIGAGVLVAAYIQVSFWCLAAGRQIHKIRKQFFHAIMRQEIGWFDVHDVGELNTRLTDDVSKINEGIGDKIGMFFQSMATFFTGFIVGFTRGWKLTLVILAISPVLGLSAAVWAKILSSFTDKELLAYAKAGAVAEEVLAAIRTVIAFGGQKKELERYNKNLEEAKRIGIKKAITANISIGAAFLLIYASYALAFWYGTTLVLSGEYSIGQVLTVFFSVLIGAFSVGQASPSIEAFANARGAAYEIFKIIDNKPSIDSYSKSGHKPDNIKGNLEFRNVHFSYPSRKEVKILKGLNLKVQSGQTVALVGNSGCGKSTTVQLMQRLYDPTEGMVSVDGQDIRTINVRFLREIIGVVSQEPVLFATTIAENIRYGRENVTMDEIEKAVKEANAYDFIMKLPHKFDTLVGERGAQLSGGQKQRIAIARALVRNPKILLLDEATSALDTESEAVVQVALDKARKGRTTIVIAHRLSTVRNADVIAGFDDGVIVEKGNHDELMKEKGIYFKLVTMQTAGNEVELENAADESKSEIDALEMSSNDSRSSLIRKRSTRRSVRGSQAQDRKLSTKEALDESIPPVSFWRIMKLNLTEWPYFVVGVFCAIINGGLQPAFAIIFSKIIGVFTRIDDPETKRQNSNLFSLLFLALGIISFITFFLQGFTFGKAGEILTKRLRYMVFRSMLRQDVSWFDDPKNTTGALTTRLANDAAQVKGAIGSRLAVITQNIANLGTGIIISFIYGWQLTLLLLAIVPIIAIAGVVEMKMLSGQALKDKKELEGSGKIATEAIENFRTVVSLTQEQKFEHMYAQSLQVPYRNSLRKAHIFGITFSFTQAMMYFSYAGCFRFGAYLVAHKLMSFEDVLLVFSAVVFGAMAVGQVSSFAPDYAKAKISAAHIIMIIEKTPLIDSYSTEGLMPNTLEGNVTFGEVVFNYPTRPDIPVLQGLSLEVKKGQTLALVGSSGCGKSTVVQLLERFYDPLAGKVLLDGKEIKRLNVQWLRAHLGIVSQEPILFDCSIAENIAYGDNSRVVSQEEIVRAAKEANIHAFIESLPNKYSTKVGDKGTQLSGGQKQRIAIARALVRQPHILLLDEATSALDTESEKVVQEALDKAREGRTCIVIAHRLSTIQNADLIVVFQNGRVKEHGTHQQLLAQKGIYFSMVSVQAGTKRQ
pIC50: −log10 of the molar value.

compound: [Na+].[Na+].[Na+].[O]=[V]([O-])([O-])[O-] [Vi, Sodium orthovanadate]
pIC50: ~3.15

----------
# test target: human Pgp (Homo sapiens)
# assay explanation: Inhibition of Pgp-mediated Rhodamine 123 efflux in L5178 MDR1 cells
# condition description: mouse T lymphoma L5178 MDR1 cells
measurement type: Ability to inhibit Pgp-mediated cell efflux of R123 (in words)

compound: O=C1Cc2cc(CCN3CCN(c4nsc5ccccc45)CC3)c(Cl)cc2N1 [Ziprasidone]
reported result: weak inhibitors
//
compound: CC1(C)S[C@@H]2[C@H](NC(=O)[C@H](C(=O)O)c3ccsc3)C(=O)N2[C@H]1C(=O)O [Ticarcillin]
reported result: not effective
//
compound: CCN(CC)CCCN(c1ccccc1)C1Cc2ccccc2C1 [Aprindine]
reported result: weak inhibitors
//
compound: CC(C)[C@H]1CC[C@H](C(=O)N[C@H](Cc2ccccc2)C(=O)O)CC1 [Nateglinide]
reported result: not effective
//
compound: C=CCc1ccccc1OCC(O)CNC(C)C (centres unmarked) [Alprenolol]
reported result: not effective
